Reported Percent Cytotoxicity values for the following compounds.
Tested on: HBL100 (breast)
method: MTT cytotoxicity assay, 72 hours (Example 13)
Assay type: cell-based, human
reported-conditions: HBL, 100 nM
Non-standard residues stand in square brackets, D forms with d. Residues, ends and D or L forms follow the SMILES beside them. Aib = CC(C)(N)C(=O)O

{"compound": "CC(C)C[C@H](NC(=O)[C@H](Cc1c[nH]cn1)NC(=O)C(C)(C)NC(=O)[C@@H](NC(=O)[C@H](C)NC(=O)[C@@H](Cc1c[nH]c2ccccc12)NC(=O)[C@H](CCC(N)=O)NC(=O)[C@H](N)Cc1ccccc1)C(C)C)C(N)=O [SEQ ID: 5, D-Phe-Gln-D-Trp-Ala-Val-Aib-His-Leu-NH2] (H-[dF]Q[dW]AV[Aib]HL-NH2; N-terminus assumed)", "Percent Cytotoxicity [%]": 19.4}
{"compound": "CC[C@H](C)[C@H](NC(=O)[C@H](Cc1c[nH]cn1)NC(=O)C(C)(C)NC(=O)[C@@H](NC(=O)[C@H](C)NC(=O)[C@H](Cc1c[nH]c2ccccc12)NC(=O)[C@H](CCC(N)=O)NC(=O)[C@H](N)Cc1ccccc1)C(C)C)C(N)=O [SEQ ID: 7, D-Phe-Gln-Trp-Ala-Val-Aib-His-Ile-NH2] (H-[dF]QWAV[Aib]HI-NH2; N-terminus assumed)", "Percent Cytotoxicity [%]": 16.1}
{"compound": "CC[C@H](C)[C@H](NC(=O)[C@H](Cc1c[nH]cn1)NC(=O)CNC(=O)[C@@H](NC(=O)C(C)(C)NC(=O)[C@H](Cc1c[nH]c2ccccc12)NC(=O)[C@H](CCC(N)=O)NC(=O)[C@H](N)Cc1ccccc1)C(C)C)C(N)=O [SEQ ID: 6, D-Phe-Gln-Trp-Aib-Val-Gly-His-Ile-NH2] (H-[dF]QW[Aib]VGHI-NH2; N-terminus assumed)", "Percent Cytotoxicity [%]": 17.0}
{"compound": "CC(C)C[C@H](NC(=O)[C@H](Cc1c[nH]cn1)NC(=O)CNC(=O)[C@@H](NC(=O)C(C)(C)NC(=O)[C@H](Cc1c[nH]c2ccccc12)NC(=O)[C@H](CCC(N)=O)NC(=O)[C@H](N)Cc1ccccc1)C(C)C)C(N)=O [SEQ ID: 4, D-Phe-Gln-Trp-Aib-Val-Gly-His-Leu-NH2] (H-[dF]QW[Aib]VGHL-NH2; N-terminus assumed)", "Percent Cytotoxicity [%]": 25.0}
{"compound": "CCCC(CCC)(NC(=O)[C@@H](NC(=O)[C@H](C)NC(=O)[C@@H](Cc1c[nH]c2ccccc12)NC(=O)[C@H](CCC(N)=O)NC(=O)[C@H](N)Cc1ccccc1)C(C)C)C(=O)N[C@@H](Cc1c[nH]cn1)C(=O)N[C@@H](CC(C)C)C(N)=O [SEQ ID: 8, D-Phe-Gln-D-Trp-Ala-Val-Dpg-His-Leu-NH2]", "Percent Cytotoxicity [%]": 11.9}
